Source of measurements: ChEMBL document CHEMBL4229343

- Tested on: THP-1
- ASSAY NAME: Antiproliferative activity against human THP1 cells
- Type: cell-based
Where a SMILES comes first, the peptide text is derived from it. Bridges are numbered along the chain shown (N, C = ends).
EXPERIMENTAL ENDPOINT: Activity

CC(=O)N[C@H]1CSSC[C@@H](C(N)=O)NC(=O)[C@H](CCC(=O)O)NC(=O)CNC(=O)[C@H]([C@@H](C)O)NC(=O)[C@H](CCC(=O)O)NC(=O)[C@H](CCC(=O)O)NC(=O)[C@H](CC(=O)O)NC1=O (Ac-CDEETGEC-NH2; disulfide 1-8) ... Non-Toxic
C[C@@H](O)[C@@H]1NC(=O)[C@H](CCC(=O)O)NC(=O)[C@H](CCC(=O)O)NC(=O)[C@H](CC(=O)O)NC(=O)[C@@H](N)CSSC[C@@H](C(N)=O)NC(=O)[C@H](CCC(=O)O)NC(=O)CNC1=O (H-CDEETGEC-NH2; disulfide 1-8) ... Non-Toxic
CC(=O)N[C@H]1CSSC[C@@H](C(N)=O)NC(=O)CNC(=O)[C@H]([C@@H](C)O)NC(=O)[C@H](CCC(=O)O)NC(=O)[C@H](CCC(=O)O)NC1=O (Ac-CEETGC-NH2; disulfide 1-6) ... Non-Toxic

###

- MEASUREMENT TARGET: Kelch-like ECH-associated protein 1 (Homo sapiens, UniProt Q14145)
- Sequence (Q14145 whole entry): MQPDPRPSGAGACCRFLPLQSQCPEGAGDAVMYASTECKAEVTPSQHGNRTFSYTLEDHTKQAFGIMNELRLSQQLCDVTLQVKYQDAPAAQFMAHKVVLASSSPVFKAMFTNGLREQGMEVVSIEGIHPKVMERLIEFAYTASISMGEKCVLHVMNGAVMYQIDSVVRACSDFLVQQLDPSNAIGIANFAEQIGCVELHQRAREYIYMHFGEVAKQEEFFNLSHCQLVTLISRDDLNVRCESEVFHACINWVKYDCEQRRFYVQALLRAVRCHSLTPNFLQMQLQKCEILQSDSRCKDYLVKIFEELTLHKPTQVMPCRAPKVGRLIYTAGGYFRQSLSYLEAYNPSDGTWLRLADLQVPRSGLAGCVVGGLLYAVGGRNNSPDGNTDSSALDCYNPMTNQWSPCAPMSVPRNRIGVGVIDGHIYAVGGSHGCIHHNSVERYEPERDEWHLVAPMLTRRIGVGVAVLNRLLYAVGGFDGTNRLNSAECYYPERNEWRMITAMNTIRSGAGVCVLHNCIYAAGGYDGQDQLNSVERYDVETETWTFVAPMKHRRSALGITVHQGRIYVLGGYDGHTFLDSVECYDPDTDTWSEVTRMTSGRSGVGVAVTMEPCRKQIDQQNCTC
Where a SMILES comes first, the peptide text is derived from it. Bridges are numbered along the chain shown (N, C = ends).
EXPERIMENTAL ENDPOINT: pKi
Give bare numbers, as −log10 of the molar value.

**Q:** Annotate the molecule CC(=O)N[C@H]1CSSC[C@@H](C(N)=O)NC(=O)CNC(=O)[C@H]([C@@H](C)O)NC(=O)[C@H](CCC(=O)O)NC(=O)[C@H](CCC(=O)O)NC1=O (Ac-CEETGC-NH2; disulfide 1-6) with its measured pKi.
**A:** 3.82
